Test target: UniProtKB P11229
Sequence (P11229 whole entry): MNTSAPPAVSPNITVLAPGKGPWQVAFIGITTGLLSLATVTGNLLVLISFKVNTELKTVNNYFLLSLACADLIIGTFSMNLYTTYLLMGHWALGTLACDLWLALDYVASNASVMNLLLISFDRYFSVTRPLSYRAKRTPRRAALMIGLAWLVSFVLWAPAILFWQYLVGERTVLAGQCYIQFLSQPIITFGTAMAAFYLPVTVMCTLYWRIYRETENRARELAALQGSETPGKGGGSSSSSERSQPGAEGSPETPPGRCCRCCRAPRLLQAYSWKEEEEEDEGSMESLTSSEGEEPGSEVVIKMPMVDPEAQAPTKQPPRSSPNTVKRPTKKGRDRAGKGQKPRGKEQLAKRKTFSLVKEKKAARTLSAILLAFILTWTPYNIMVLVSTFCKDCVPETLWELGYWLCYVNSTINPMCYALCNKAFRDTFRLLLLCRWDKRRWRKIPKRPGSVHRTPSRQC
Measurement protocol: Intracellular Ca2+ mobilization (Fluo-4 NW) in cells stably transfected with M1 mAChR
Type: cell-based
Parameters: expressed in transfected cells
Measurement parameters: 100 μM; mobilization of intracellular Ca ions
Endpoint label: M1 agonist at 100 μM vs. carbachol (full muscarinic agonist, 100%)
The response must be a number in % with no trailing unit.

Answered cases to consult:
- CC1SC2(CCN(C)CC2)CN1C(=O)CCc1c[nH]c2ccccc12 (racemic): 40
- C[C@@H]1SC2(CCN(C)CC2)CN1C(=O)CCc1c[nH]c2ccccc12 (single isomer, unassigned) [AF710B]: 66
- CC1OC2(CCN(C)CC2)C/C1=N\OC(=O)CCc1c[nH]c2ccccc12 (stereo not drawn): 90
- CC1OC2(CCN(C)CC2)CN1C(=O)CCc1c[nH]c2ccccc12 (single isomer, unassigned) [AF711A]: 45
- CC1OC2(CCN(C)CC2)CC1NC(=O)CCc1c[nH]c2ccccc12 (single isomer, unassigned) [AF730]: 40

Identify measured M1 agonist at 100 μM vs. carbachol (full muscarinic agonist, 100%) associated with CC1OC2(CCN(C)CC2)CC1NC(=O)CCc1c[nH]c2ccccc12 (single isomer, unassigned) [AF730 II] 36

Determine from records and report M1 agonist at 100 μM vs. carbachol (full muscarinic agonist, 100%) for CC1OC2(CCN(C)CC2)C2C1N2S(=O)(=O)c1ccc(F)cc1 (stereo not drawn) 13

Using known records, supply M1 agonist at 100 μM vs. carbachol (full muscarinic agonist, 100%) for CC1OC2(CCN(C)CC2)CN1C(=O)CCc1c[nH]c2ccccc12 (racemic) [AF711] 19

For the compound CC1OC2(CCN(C)CC2)C2C1N2C(=O)CCc1c[nH]c2ccccc12 (stereo not drawn) [AF718C] , give its measured M1 agonist at 100 μM vs. carbachol (full muscarinic agonist, 100%) value. 43

Taken from patent US9034891B2.
